Conditions: 298.15 K; 101 kPa; Liquid
Measured parameter: mass density (kg/m3)

Compound | mass density [kg/m3]
CN1CCCC1=O [N-methylpyrrolidone] | 1028.23
CNC=O [N-methylformamide] | 999.06
CN(C)C=O [dimethylformamide] | 943.94
O=C1CCCN1 [2-pyrrolidinone] | 1107.52
CC(=O)N(C)C [N,N-dimethylethanamide] | 936.34
NC=O [formamide] | 1128.78
